src = ChEMBL document CHEMBL5303573

Assay: The drug is tested on Alistipes indistinctus strain: DSM22520 for biotransformation. The drug concentrations were measured before and after a 12-h incubation by liquid-chromatography-coupled mass spectrometry (LC–MS)
Details: 2 µM
endpoint label: Bacterial Biotransformation

Sample records with Bacterial Biotransformation:
>>> result("Nc1nc(N)nc(-c2cc(Cl)ccc2Cl)n1.O=C(O)/C=C\\C(=O)O [IRSOGLADINE MALEATE]")
"Compound NOT metabolized"
>>> result("O=C(O)CCc1nc(-c2ccccc2)c(-c2ccccc2)o1")
"Compound NOT metabolized"
>>> result("CCCCCCOC(=O)/N=C(/N)c1ccc(NCc2nc3cc(C(=O)N(CCC(=O)OCC)c4ccccn4)ccc3n2C)cc1.CS(=O)(=O)O [DABIGATRAN ETEXILATE MESYLATE]")
"Compound NOT metabolized"
>>> result("COc1ccc2c(c1OC)C(=O)O[C@@H]2[C@H]1c2c(cc3c(c2OC)OCO3)CCN1C")
"Compound metabolized"
>>> result("Cc1ccc(S(=O)(=O)NC(=O)NN2CC3CCCC3C2)cc1 (stereo not drawn) [GLICLAZIDE]")
"Compound NOT metabolized"

// query Query (compound): CNS(=O)(=O)Cc1ccc2[nH]cc(CCN(C)C)c2c1.O=C(O)CCC(=O)O [SUMATRIPTAN SUCCINATE] ; field requested: Bacterial Biotransformation
// result Compound NOT metabolized

// query Find the recorded Bacterial Biotransformation belonging to COc1ccccc1OCCNCC(O)COc1cccc2[nH]c3ccccc3c12 (stereo not drawn) and report it.
// result Compound metabolized

// query Find the recorded Bacterial Biotransformation belonging to CC1OC(OC2C(O)CC(OC3C(O)CC(OC4CCC5(C)C(CCC6C5CCC5(C)C(C7=CC(=O)OC7)CCC65O)C4)OC3C)OC2C)CC(O)C1O (stereo not drawn) and report it.
// result Compound NOT metabolized

====

Experiment: The drug is tested on Eubacterium ventriosum strain: ATCC27560 for biotransformation. The drug concentrations were measured before and after a 12-h incubation by liquid-chromatography-coupled mass spectrometry (LC–MS)
Type: ADME
Parameters: dose 2 uM, timepoint 0 vs 12 hours
Settings: 2 µM
endpoint label: Bacterial Biotransformation

Worked set:
>>> result("CC(C)(C#N)c1cc(Cn2cncn2)cc(C(C)(C)C#N)c1")
"Compound NOT metabolized"
>>> result("CCOC(=O)[C@H](CCc1ccccc1)N[C@H]1CCc2ccccc2N(CC(=O)O)C1=O")
"Compound NOT metabolized"
>>> result("COCCc1ccc(OCC(O)CNC(C)C)cc1.COCCc1ccc(OCC(O)CNC(C)C)cc1.O=C(O)C(O)C(O)C(=O)O (stereo not given) [METOPROLOL TARTRATE]")
"Compound NOT metabolized"
>>> result("CC[C@H](C)C(=O)O[C@H]1CCC=C2C=C[C@H](C)[C@H](CC[C@@H]3C[C@@H](O)CC(=O)O3)[C@H]21")
"Compound metabolized"
>>> result("COC(=O)[C@H](c1ccccc1Cl)N1CCc2sccc2C1.O=S(=O)(O)O [CLOPIDOGREL BISULFATE]")
"Compound NOT metabolized"
>>> result("CCc1oc2ccccc2c1C(=O)c1cc(Br)c(O)c(Br)c1")
"Compound NOT metabolized"
>>> result("O=C(O)c1cc(/N=N/c2ccc(S(=O)(=O)Nc3ccccn3)cc2)ccc1O")
"Compound metabolized"
>>> result("CC(C)NCC(O)COc1ccc(CCOCC2CC2)cc1 (stereo not given)")
"Compound NOT metabolized"
>>> result("COc1ccc(CN2CCNCC2)c(OC)c1OC.Cl.Cl [TRIMETAZIDINE DIHYDROCHLORIDE]")
"Compound NOT metabolized"
>>> result("CC(=O)OCC(=O)[C@@]12N=C(C)O[C@@H]1C[C@H]1[C@@H]3CCC4=CC(=O)C=C[C@]4(C)[C@H]3[C@@H](O)C[C@@]12C")
"Compound metabolized"

// query I'd like to know its Bacterial Biotransformation. The compound in question is COC(=O)C1=C(C)NC(C)=C(C(=O)OC(C)C)C1c1cccc2nonc12 (stereo not given)
// result Compound NOT metabolized

// query I am curious: what Bacterial Biotransformation value has been reported for CN(C)C(=O)Oc1cccc([N+](C)(C)C)c1.[Br-] [NEOSTIGMINE BROMIDE] ?
// result Compound NOT metabolized

// query So what's the measured Bacterial Biotransformation for this one? CC#C[C@]1(O)CC[C@H]2[C@@H]3CCC4=CC(=O)CCC4=C3[C@@H](c3ccc(N(C)C)cc3)C[C@@]21C
// result Compound NOT metabolized

// query Record request: Bacterial Biotransformation value, item CCOc1cc(CC(=O)N[C@@H](CC(C)C)c2ccccc2N2CCCCC2)ccc1C(=O)O [REPAGLINIDE]
// result Compound NOT metabolized

// query Consider the compound shown here: CC(C)C[C@H]1C(=O)N2CCC[C@H]2[C@]2(O)O[C@](NC(=O)[C@@H]3C=C4c5cccc6[nH]c(Br)c(c56)C[C@H]4N(C)C3)(C(C)C)C(=O)N12.CS(=O)(=O)O [BROMOCRIPTINE MESYLATE] What is its recorded Bacterial Biotransformation?
// result Compound metabolized

====

Experiment: The drug is tested on Enterococcus faecalis strain: V583 for biotransformation. The drug concentrations were measured before and after a 12-h incubation by liquid-chromatography-coupled mass spectrometry (LC–MS)
Settings: 2 µM
endpoint label: Bacterial Biotransformation

Consider the following illustrative entries.
>>> result("CC(C)(C)NCC(O)COc1cccc2c1CC(O)C(O)C2 (stereo not given)")
"Compound NOT metabolized"
>>> result("Clc1ccc(Cn2c(CN3CCCC3)nc3ccccc32)cc1")
"Compound NOT metabolized"
>>> result("Nc1ccc(/N=N/c2ccccc2)c(N)n1")
"Compound metabolized"
>>> result("COc1cc2nc(N(C)CCCNC(=O)C3CCCO3)nc(N)c2cc1OC (stereo not given)")
"Compound NOT metabolized"
>>> result("COc1cc2nc(N3CCN(C(=O)c4ccco4)CC3)nc(N)c2cc1OC")
"Compound NOT metabolized"
>>> result("C[C@@H](c1ncncc1F)[C@](O)(Cn1cncn1)c1ccc(F)cc1F")
"Compound NOT metabolized"
>>> result("COc1ccc(CN2CCNCC2)c(OC)c1OC.Cl.Cl [TRIMETAZIDINE DIHYDROCHLORIDE]")
"Compound NOT metabolized"
>>> result("O=C(O)CCc1nc(-c2ccccc2)c(-c2ccccc2)o1")
"Compound NOT metabolized"
>>> result("CC(C)c1c(CN(C)C(C)Cc2ccccc2)n(C)n(-c2ccccc2)c1=O (stereo not given)")
"Compound NOT metabolized"
>>> result("COc1ccccc1OCC(O)COC(N)=O (stereo not given)")
"Compound NOT metabolized"

// query Please give the measured Bacterial Biotransformation for this compound: CC(=O)OCC(=O)NCCCOc1cccc(CN2CCCCC2)c1 [ROXATIDINE ACETATE]
// result Compound metabolized

// query I'd like to know its Bacterial Biotransformation. The compound in question is Br.CN1CCC[C@@H]1Cc1c[nH]c2ccc(CCS(=O)(=O)c3ccccc3)cc12 [ELETRIPTAN HYDROBROMIDE]
// result Compound NOT metabolized

====

Experiment: The drug is tested on Eubacterium ventriosum strain: ATCC27560 for biotransformation. The drug concentrations were measured before and after a 12-h incubation by liquid-chromatography-coupled mass spectrometry (LC–MS)
Format: ADME
Parameters: dose 2 uM, timepoint 0 vs 12 hours
Conditions: 2 µM
endpoint label: Bacterial Biotransformation

Some entries whose results are on file:
>>> result("CN1[C@@H]2CC[C@H]1C[C@@H](OC(=O)C(CO)c1ccccc1)C2 (some centres undefined) [ATROPINE]")
"Compound NOT metabolized"
>>> result("CN(C)CCC=C1c2ccccc2C=Cc2ccccc21 [CYCLOBENZAPRINE]")
"Compound NOT metabolized"
>>> result("CCN(CC)C(C)CN1c2ccccc2Sc2ccccc21 (centres undefined) [ETHOPROPAZINE]")
"Compound NOT metabolized"
>>> result("O=C(Nc1ccccc1)OCC(CN1CCCCC1)OC(=O)Nc1ccccc1 (centres undefined) [DIPERODON]")
"Compound NOT metabolized"
>>> result("Cc1ccc(/C(=C\\CN2CCCC2)c2ccccn2)cc1 [TRIPROLIDINE]")
"Compound NOT metabolized"

Shifting focus to the molecule that follows.
// query Returns the measured Bacterial Biotransformation for the input molecule. Input: CN1[C@@H]2CC[C@H]1C[C@@H](OC(=O)c1c[nH]c3ccccc13)C2 [TROPISETRON]
// result Compound NOT metabolized

====

Assay: The drug is tested on Clostridium hathewayi strain: DSM13479 for biotransformation. The drug concentrations were measured before and after a 12-h incubation by liquid-chromatography-coupled mass spectrometry (LC–MS)
Conditions: hungatella hathewayi, 2 µM
endpoint label: Bacterial Biotransformation

Some compounds with recorded Bacterial Biotransformation:
>>> result("CC(C)(C)NC[C@H](O)COc1nsnc1N1CCOCC1.O=C(O)/C=C\\C(=O)O [TIMOLOL MALEATE]")
"Compound NOT metabolized"
>>> result("CC(NC(C)(C)C)C(=O)c1cccc(Cl)c1 (stereo not given)")
"Compound NOT metabolized"
>>> result("CN/C(=N/CCSCc1nc[nH]c1C)NC#N")
"Compound NOT metabolized"
>>> result("COc1ccc2cc([C@H](C)C(=O)O)ccc2c1")
"Compound NOT metabolized"
>>> result("CC(C)NCC(O)COc1ccc(CCOCC2CC2)cc1 (stereo not given)")
"Compound NOT metabolized"
>>> result("COc1cc2nc(N3CCN(C(=O)c4ccco4)CC3)nc(N)c2cc1OC")
"Compound NOT metabolized"
>>> result("CCCCC1=NC2(CCCC2)C(=O)N1Cc1ccc(-c2ccccc2-c2nnn[nH]2)cc1")
"Compound metabolized"
>>> result("Br.NC(=O)C(c1ccccc1)(c1ccccc1)[C@@H]1CCN(CCc2ccc3c(c2)CCO3)C1 [DARIFENACIN HYDROBROMIDE]")
"Compound NOT metabolized"

// query What value of Bacterial Biotransformation has been recorded for this entry: COc1c2occc2cc2ccc(=O)oc12
// result Compound metabolized

// query Dear colleague, I am looking for the recorded Bacterial Biotransformation of the following compound: c1ccc([C@H]2CN3CCSC3=N2)cc1
// result Compound NOT metabolized

// query Please give the measured Bacterial Biotransformation for this compound: CCOc1cc(CC(=O)N[C@@H](CC(C)C)c2ccccc2N2CCCCC2)ccc1C(=O)O [REPAGLINIDE]
// result Compound NOT metabolized

// query May I ask what Bacterial Biotransformation has been recorded for OCCOCCN1CCN(C2=Nc3ccccc3Sc3ccccc32)CC1 ?
// result Compound NOT metabolized

// query If you can, please state the reported Bacterial Biotransformation value of CN1C(C(=O)Nc2ccccn2)=C(O)c2sccc2S1(=O)=O .
// result Compound NOT metabolized

// query I would be grateful if you could share the reported Bacterial Biotransformation for N#Cc1ccc2[nH]cc(CCCCN3CCN(c4ccc5oc(C(N)=O)cc5c4)CC3)c2c1 .
// result Compound NOT metabolized

// query I would be grateful if you could share the reported Bacterial Biotransformation for Nc1nc2ccc(OC(F)(F)F)cc2s1 .
// result Compound NOT metabolized

// query Reported Bacterial Biotransformation, compound CN(C)CCC=C1c2ccccc2C=Cc2ccccc21 : ____
// result Compound NOT metabolized
